Test system: MDA-MB-231 multicell spheroids, viability (%T/C)
Experiment: Anticancer human tumor MDA-MB-231 cell line growth inhibition [IpAb]; active = viability on the fitted dose curve at most 10% of control; inactive = the rest;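 note: viability read after seven days of drug exposure; 100% = DMSO vehicle control viability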
Settings: second compound 0.316 µM; first compound 10 µM
Procedure: Combinatorial screen of targeted agents with ipatasertib and abemaciclib in multi-cell type tumor spheroids […] Compounds. […] If the clinical Cmax for an agent had not been determined, the highest concentration tested was 10 microM. NCI60 Cell Culture. […] The optimal seeding densities for each of the cell lines at each time point assessed were determined prior to performing the concentration response studies. […]
Respond only with the outcome that fits, drawn from active, inactive

Check out these entries, answers already filled in.
# fetch the recorded call for Cn1ncc(Cl)c1-c1cc(C(=O)NC(CN)Cc2cccc(F)c2)sc1Cl (stereo not drawn) + CCN1CCN(Cc2ccc(Nc3ncc(F)c(-c4cc(F)c5nc(C)n(C(C)C)c5c4)n3)nc2)CC1 here active

Try C=CCn1c(=O)c2cnc(Nc3ccc(N4CCN(C)CC4)cc3)nc2n1-c1cccc(C(C)(C)O)n1 + CCN1CCN(Cc2ccc(Nc3ncc(F)c(-c4cc(F)c5nc(C)n(C(C)C)c5c4)n3)nc2)CC1 next. inactive

Kindly consider the entry below.
How did this test come out for Cc1nc(NC(=O)N2CCCC2C(N)=O)sc1-c1ccnc(C(C)(C)C(F)(F)F)c1 (stereo not drawn) + CC(C)NCC(C(=O)N1CCN(c2ncnc3c2C(C)CC3O)CC1)c1ccc(Cl)cc1 ? inactive

* * *

test system: MDA-MB-231 multicell spheroids, viability (%T/C); assay: Anticancer human tumor MDA-MB-231 cell line growth inhibition [IpAb]; settings: second compound 3.16 µM; first compound 0.0316 µM; stronger effect = lower value;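 note: viability read after seven days of drug exposure; 100% = DMSO vehicle control viability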
measurement-label: viability, T/C (%)
Record the value in %, omitting the unit from your answer.

Some solved cases for reference:
GET /values?readout=viability, T/C&item= CCCS(=O)(=O)Nc1ccc(F)c(C(=O)c2c[nH]c3ncc(-c4ccc(Cl)cc4)cc23)c1F + CC(C)NCC(C(=O)N1CCN(c2ncnc3c2C(C)CC3O)CC1)c1ccc(Cl)cc1 59.3

Record: Cn1ncc(Cl)c1-c1cc(C(=O)NC(CN)Cc2cccc(F)c2)sc1Cl (stereo unspecified) + CC(C)NCC(C(=O)N1CCN(c2ncnc3c2C(C)CC3O)CC1)c1ccc(Cl)cc1 57.3

// next record Cc1nc(NC(=O)N2CCCC2C(N)=O)sc1-c1ccnc(C(C)(C)C(F)(F)F)c1 (stereo unspecified) + CC(C)NCC(C(=O)N1CCN(c2ncnc3c2C(C)CC3O)CC1)c1ccc(Cl)cc1 50.7

And what about the molecule Cn1ncnc1[C@H]1c2n[nH]c(=O)c3cc(F)cc(c23)N[C@@H]1c1ccc(F)cc1 + CC(C)NCC(C(=O)N1CCN(c2ncnc3c2C(C)CC3O)CC1)c1ccc(Cl)cc1 ? 45.7

What do we get for C=CCn1c(=O)c2cnc(Nc3ccc(N4CCN(C)CC4)cc3)nc2n1-c1cccc(C(C)(C)O)n1 + CC(C)NCC(C(=O)N1CCN(c2ncnc3c2C(C)CC3O)CC1)c1ccc(Cl)cc1 ? 60.6

New cases:
# input molecule: Cn1nccc1Nc1nccc(-c2ccn(C(CO)c3ccc(Cl)c(F)c3)c(=O)c2)n1 (stereo unspecified) + CC(C)NCC(C(=O)N1CCN(c2ncnc3c2C(C)CC3O)CC1)c1ccc(Cl)cc1 ; wanted: its viability, T/C 34.3

* * *

tested on: MDA-MB-231 multicell spheroids, viability (%T/C); assay: Anticancer human tumor MDA-MB-231 cell line growth inhibition [IpAb]; settings: second compound 1 µM; first compound 0.00316 µM; stronger effect = lower value;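 note: viability read after seven days of drug exposure; 100% = DMSO vehicle control viability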
measurement-label: viability, T/C (%)
Form entry: value (%) — number only.

For the molecule shown here, CC(C)n1nc(-c2ccc3oc(N)nc3c2)c2c(N)ncnc21 + CC(C)NCC(C(=O)N1CCN(c2ncnc3c2C(C)CC3O)CC1)c1ccc(Cl)cc1 , give the reported viability, T/C. 46.1

Quick one: CC(C)n1nc(-c2ccc3oc(N)nc3c2)c2c(N)ncnc21 + CCN1CCN(Cc2ccc(Nc3ncc(F)c(-c4cc(F)c5nc(C)n(C(C)C)c5c4)n3)nc2)CC1 39.8

// next record Cn1ncnc1[C@H]1c2n[nH]c(=O)c3cc(F)cc(c23)N[C@@H]1c1ccc(F)cc1 + CCN1CCN(Cc2ccc(Nc3ncc(F)c(-c4cc(F)c5nc(C)n(C(C)C)c5c4)n3)nc2)CC1 50.2

What about this molecule? COc1c(OCCCN2CCOCC2)ccc2c3n(c(=NC(=O)c4cnc(N)nc4)nc12)CCN3 + CCN1CCN(Cc2ccc(Nc3ncc(F)c(-c4cc(F)c5nc(C)n(C(C)C)c5c4)n3)nc2)CC1 53

Okay, and COc1c(OCCCN2CCOCC2)ccc2c3n(c(=NC(=O)c4cnc(N)nc4)nc12)CCN3 + CC(C)NCC(C(=O)N1CCN(c2ncnc3c2C(C)CC3O)CC1)c1ccc(Cl)cc1 ? 62.6

---
Using the record for Cn1ncnc1[C@H]1c2n[nH]c(=O)c3cc(F)cc(c23)N[C@@H]1c1ccc(F)cc1 + CC(C)NCC(C(=O)N1CCN(c2ncnc3c2C(C)CC3O)CC1)c1ccc(Cl)cc1 , report its viability, T/C. 59.2
